Measured values drawn from paper PMC5589637 for this set.

System: HeLa (cervical cancer) cells
Test: MTT cytotoxicity assay, HeLa
Format: cell-based
Settings: 72 h
Below, each entry is listed alongside its reported IC50.
assay_readout: IC50 (µM)

>>> value_reported("COc1ccnc(-c2cc(OC)ccn2)c1.COc1ccnc(-c2cc(OC)ccn2)c1.COc1ccnc(-c2cc(OC)ccn2)c1.F[P-](F)(F)(F)(F)F.F[P-](F)(F)(F)(F)F.F[P-](F)(F)(F)(F)F.[Co+3] [complex 5, [Co^III(4,4’-(OMe)2-bpy)3](PF6)3]")
12.8
>>> value_reported("Cc1ccnc(-c2cc(C)ccn2)c1.Cc1ccnc(-c2cc(C)ccn2)c1.Cc1ccnc(-c2cc(C)ccn2)c1.F[P-](F)(F)(F)(F)F.F[P-](F)(F)(F)(F)F.[Co+2] [complex 1, [Co^II(4,4’-Me2-bpy)3](PF6)2]")
10.1
>>> value_reported("CCCCCCCCCc1ccnc(-c2cc(CCCCCCCCC)ccn2)c1.CCCCCCCCCc1ccnc(-c2cc(CCCCCCCCC)ccn2)c1.CCCCCCCCCc1ccnc(-c2cc(CCCCCCCCC)ccn2)c1.F[P-](F)(F)(F)(F)F.F[P-](F)(F)(F)(F)F.F[P-](F)(F)(F)(F)F.[Co+3] [complex 6, [Co^III(4,4’-(C9H19)2-bpy)3](PF6)3]")
21.3
>>> value_reported("Cc1ccnc(-c2cc(C)ccn2)c1.Cc1ccnc(-c2cc(C)ccn2)c1.Cc1ccnc(-c2cc(C)ccn2)c1.F[P-](F)(F)(F)(F)F.F[P-](F)(F)(F)(F)F.F[P-](F)(F)(F)(F)F.[Co+3] [complex 2, [Co^III(4,4’-Me2-bpy)3](PF6)3]")
11.9

----------
System: C13 (cisplatin-resistant) cells
Experiment: MTT cytotoxicity, C13 (cisplatin-resistant)
Format: cell-based
Conditions: C13 (cisplatin-resistant), MTT, 72 h; read-out: IC50 value, cisplatin-resistant cancer, C13
assay_readout: IC50

>>> value_reported("Cc1ccnc(-c2cc(C)ccn2)c1.Cc1ccnc(-c2cc(C)ccn2)c1.Cc1ccnc(-c2cc(C)ccn2)c1.F[P-](F)(F)(F)(F)F.F[P-](F)(F)(F)(F)F.F[P-](F)(F)(F)(F)F.[Co+3] [complex 2, [Co^III(4,4’-Me2-bpy)3](PF6)3]")
"7.59 µM"
>>> value_reported("COc1ccnc(-c2cc(OC)ccn2)c1.COc1ccnc(-c2cc(OC)ccn2)c1.COc1ccnc(-c2cc(OC)ccn2)c1.F[P-](F)(F)(F)(F)F.F[P-](F)(F)(F)(F)F.F[P-](F)(F)(F)(F)F.[Co+3] [complex 5, [Co^III(4,4’-(OMe)2-bpy)3](PF6)3]")
"20.3 µM"
>>> value_reported("Cc1ccnc(-c2cc(C)ccn2)c1.Cc1ccnc(-c2cc(C)ccn2)c1.Cc1ccnc(-c2cc(C)ccn2)c1.F[P-](F)(F)(F)(F)F.F[P-](F)(F)(F)(F)F.[Co+2] [complex 1, [Co^II(4,4’-Me2-bpy)3](PF6)2]")
"15.6 µM"
>>> value_reported("CCCCCCCCCc1ccnc(-c2cc(CCCCCCCCC)ccn2)c1.CCCCCCCCCc1ccnc(-c2cc(CCCCCCCCC)ccn2)c1.CCCCCCCCCc1ccnc(-c2cc(CCCCCCCCC)ccn2)c1.F[P-](F)(F)(F)(F)F.F[P-](F)(F)(F)(F)F.F[P-](F)(F)(F)(F)F.[Co+3] [complex 6, [Co^III(4,4’-(C9H19)2-bpy)3](PF6)3]")
"92.6 µM"
>>> value_reported("N.N.[Cl][Pt][Cl] [Cisplatin, cis-[Pt^II(NH3)2Cl2], reference compound]")
"> 200 µM"
